Test system: Enterovirus 71 (EV71) H strain
Experimental Details: In vitro anti-EV71 activity (antiviral activity in RD cells, CellTiter-Glo)
Type: cell-based
Condition Summary: Enterovirus A, EV71, RD, 96 h
pIC50: −log10 of the molar value.
Property Measured: pIC50

# Entry Smiles, Observed Result
measured = [
    ("O=C(Nc1ccc(-c2ccc3ncc4ccc(=O)n(-c5cccc(C(F)(F)F)c5)c4c3c2)cn1)Oc1ccccc1", 7.05),
]

----------
System: RD cells
Experimental Details: Detection of cytotoxicity in RD cells (CellTiter-Glo)
Format: cell-based
Condition Summary: 4 days, CellTiter-Glo, median toxic dose
Listing of recorded TD50 by entry.

# Entry Smiles, Tgt, TD50
measured = [
    ("COc1ncccc1-c1ccc2ncc3ccc(=O)n(-c4cccc(C(F)(F)F)c4)c3c2c1", "RD cells", ">200 µM"),
    ("CC(=O)/C=C/c1cnc2ccc(-c3ccc(F)cc3)cc2c1Nc1cccc(C(F)(F)F)c1", "RD cells", ">200 µM"),
    ("Cc1noc(C)c1-c1ccc2ncc3ccc(=O)n(-c4cccc(C(F)(F)F)c4)c3c2c1", "RD cells", ">200 µM"),
]

----------
Test system: RD cells
Experimental Details: Detection of cytotoxicity in RD cells (CellTiter-Glo)
Type: cell-based
Condition Summary: 4 days, CellTiter-Glo, median toxic dose
Listing of recorded TD50 by entry.

# Entry Smiles, Limit Sign, TD50 [µM]
rows = [
    ("CC(=O)/C=C/c1cnc2ccc(-c3ccc(O)cc3)cc2c1Nc1cccc(C(F)(F)F)c1", ">", 200),
    ("Nc1cccc(Nc2ccc3ncc4ccc(=O)n(-c5cccc(C(F)(F)F)c5)c4c3c2)c1", "=", 7.58),
    ("O=C(Nc1ccc(-c2ccc3ncc4ccc(=O)n(-c5cccc(C(F)(F)F)c5)c4c3c2)cn1)Oc1ccccc1", "=", 0.20),
    ("C#CCNc1ccc(-c2ccc3ncc4ccc(=O)n(-c5cccc(C(F)(F)F)c5)c4c3c2)cn1", "=", 0.29),
    ("O=c1ccc2cnc3ccc(-c4ccc5ncccc5c4)cc3c2n1-c1cccc(C(F)(F)F)c1", "=", 0.03),
    ("NC(=O)NC/C=C/c1ccc2ncc3oc(=O)n(-c4cccc(C(F)(F)F)c4)c3c2c1", "=", 66.64),
    ("N#CC/C=C/c1ccc2ncc3oc(=O)n(-c4cccc(C(F)(F)F)c4)c3c2c1", "=", 9.20),
    ("CC(=O)/C=C/c1cnc2ccc(-c3ccc(F)nc3)cc2c1Nc1cccc(C(F)(F)F)c1", "=", 2.23),
    ("CN1CCN(c2ccc(-c3ccc4ncc5ccc(=O)n(-c6cccc(C(F)(F)F)c6)c5c4c3)cn2)CC1", "=", 0.18),
    ("CN(C)c1ccc(-c2ccc3ncc4ccc(=O)n(-c5cccc(C(F)(F)F)c5)c4c3c2)cn1", "=", 0.17),
    ("CC(=O)/C=C/c1cnc2ccc(-c3ccc(N)cc3)cc2c1Nc1cccc(C(F)(F)F)c1", "=", 5.14),
    ("NC(=O)c1ccc(-c2ccc3ncc4oc(=O)n(-c5cccc(C(F)(F)F)c5)c4c3c2)cc1", "=", 6.95),
    ("CC(=O)Nc1ccc(Nc2ccc3ncc4ccc(=O)n(-c5cccc(C(F)(F)F)c5)c4c3c2)cc1", "=", 10.65),
    ("CCCCC(=O)Nc1ccc(-c2ccc3ncc4ccc(=O)n(-c5cccc(C(F)(F)F)c5)c4c3c2)cn1", "=", 0.70),
    ("O=c1ccc2cnc3ccc(Nc4ccc(F)nc4)cc3c2n1-c1cccc(C(F)(F)F)c1", "=", 59.31),
    ("CC(=O)/C=C/c1cnc2ccc(-c3ccc(C(C)C)cc3)cc2c1Nc1cccc(C(F)(F)F)c1", "=", 1.75),
    ("O=c1ccc2cnc3ccc(Nc4ccc(Cl)nc4)cc3c2n1-c1cccc(C(F)(F)F)c1", "=", 20.75),
    ("CC(=O)/C=C/c1cnc2ccc(-c3cccc(Cl)c3)cc2c1Nc1cccc(C(F)(F)F)c1", "=", 4.65),
    ("CCC(=O)Nc1ccc(-c2ccc3ncc4ccc(=O)n(-c5cccc(C(F)(F)F)c5)c4c3c2)cn1", "=", 0.04),
    ("O=c1oc2cnc3ccc(-c4cnc5ccccc5c4)cc3c2n1-c1cccc(C(F)(F)F)c1", "=", 68.88),
    ("O=c1ccc2cnc3ccc(-c4ccc(N5CCOCC5)nc4)cc3c2n1-c1cccc(C(F)(F)F)c1", "=", 2.91),
    ("Cc1ccc(-c2ccc3ncc4oc(=O)n(-c5cccc(C(F)(F)F)c5)c4c3c2)cn1", "=", 16.88),
    ("Cc1ccc(Nc2ccc3ncc4ccc(=O)n(-c5cccc(C(F)(F)F)c5)c4c3c2)cn1", "=", 22.62),
    ("CC(=O)/C=C/c1cnc2ccc(-c3cnc4ccccc4c3)cc2c1Nc1cccc(C(F)(F)F)c1", "=", 0.68),
    ("COc1cncc(-c2ccc3ncc(/C=C/C(C)=O)c(Nc4cccc(C(F)(F)F)c4)c3c2)c1", ">", 200),
]

----------
Tgt: mTOR kinase (Homo sapiens, UniProt P42345)
Sequence (P42345 1360-2549 limits assumed): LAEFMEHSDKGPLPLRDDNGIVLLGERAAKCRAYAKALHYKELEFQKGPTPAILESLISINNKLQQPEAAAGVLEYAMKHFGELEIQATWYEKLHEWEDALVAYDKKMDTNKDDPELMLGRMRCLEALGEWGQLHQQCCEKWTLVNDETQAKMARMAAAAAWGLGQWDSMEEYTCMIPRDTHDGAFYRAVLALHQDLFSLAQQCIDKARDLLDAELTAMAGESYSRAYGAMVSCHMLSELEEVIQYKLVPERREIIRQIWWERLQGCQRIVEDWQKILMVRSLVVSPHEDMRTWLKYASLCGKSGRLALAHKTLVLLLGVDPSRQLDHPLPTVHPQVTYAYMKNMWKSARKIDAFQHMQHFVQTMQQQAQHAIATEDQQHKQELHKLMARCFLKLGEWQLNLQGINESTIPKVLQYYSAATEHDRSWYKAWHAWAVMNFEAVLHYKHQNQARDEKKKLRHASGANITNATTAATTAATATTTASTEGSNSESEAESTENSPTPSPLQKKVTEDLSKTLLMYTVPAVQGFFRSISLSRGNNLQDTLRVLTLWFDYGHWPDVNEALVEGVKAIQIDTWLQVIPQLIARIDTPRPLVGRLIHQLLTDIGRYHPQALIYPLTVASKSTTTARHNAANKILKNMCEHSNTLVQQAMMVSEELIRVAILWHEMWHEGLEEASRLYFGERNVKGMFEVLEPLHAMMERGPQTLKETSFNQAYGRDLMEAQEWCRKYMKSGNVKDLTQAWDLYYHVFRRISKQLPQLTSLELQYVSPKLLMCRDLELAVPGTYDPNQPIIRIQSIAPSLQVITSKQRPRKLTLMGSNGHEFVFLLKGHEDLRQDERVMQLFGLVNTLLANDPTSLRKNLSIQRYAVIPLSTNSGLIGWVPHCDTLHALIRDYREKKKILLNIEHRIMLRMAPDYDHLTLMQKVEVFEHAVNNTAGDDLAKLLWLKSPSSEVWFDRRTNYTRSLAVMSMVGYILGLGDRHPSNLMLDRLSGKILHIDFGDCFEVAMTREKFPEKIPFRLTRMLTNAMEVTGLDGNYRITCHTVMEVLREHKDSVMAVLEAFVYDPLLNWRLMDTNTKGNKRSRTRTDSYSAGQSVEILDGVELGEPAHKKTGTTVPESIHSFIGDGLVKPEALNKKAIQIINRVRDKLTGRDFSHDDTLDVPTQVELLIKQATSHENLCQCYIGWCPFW
Property Measured: log10 of IC50 (log10 of the value in nM)

# Entry Smiles, Property Measured, Observed Result
measured = [
    ("O=C(Cc1ccccc1)Nc1ccc(-c2ccc3ncc4ccc(=O)n(-c5cccc(C(F)(F)F)c5)c4c3c2)cn1", "log10 of IC50", 1.54),
    ("O=c1ccc2cnc3ccc(-c4ccc(N5CCOCC5)nc4)cc3c2n1-c1cccc(C(F)(F)F)c1", "log10 of IC50", 1.36),
    ("Cc1noc(C)c1-c1ccc2ncc3ccc(=O)n(-c4cccc(C(F)(F)F)c4)c3c2c1", "log10 of IC50", 3.08),
    ("CN1CCN(c2ccc(-c3ccc4ncc5ccc(=O)n(-c6cccc(C(F)(F)F)c6)c5c4c3)cn2)CC1", "log10 of IC50", 0.06),
    ("O=c1ccc2cnc3ccc(C4=CCC5(CC4)OCCO5)cc3c2n1-c1cccc(C(F)(F)F)c1", "log10 of IC50", 1.94),
]

----------
Listing of recorded melting point by entry.

# Entry Smiles, melting point
records = [
    ("CC(=O)/C=C/c1cnc2ccc(-c3cn[nH]c3)cc2c1Nc1cccc(C(F)(F)F)c1", "177 to 179 °C"),
    ("CC(=O)/C=C/c1cnc2ccc(-c3ccc(F)c(C)c3)cc2c1Nc1cccc(C(F)(F)F)c1", "209 to 210 °C"),
    ("O=c1oc2cnc3ccc(-c4cnc5ccccc5c4)cc3c2n1-c1cccc(C(F)(F)F)c1", "242 to 244 °C"),
    ("NC(=O)c1ccc(-c2ccc3ncc4oc(=O)n(-c5cccc(C(F)(F)F)c5)c4c3c2)cc1", "294 to 296 °C"),
    ("CCCCC(=O)Nc1ccc(-c2ccc3ncc4oc(=O)n(-c5cccc(C(F)(F)F)c5)c4c3c2)cn1", "231 to 232 °C"),
    ("N#Cc1ccc(Nc2ccc3ncc4ccc(=O)n(-c5cccc(C(F)(F)F)c5)c4c3c2)cc1", "259 to 260 °C"),
    ("Cc1noc(C)c1-c1ccc2ncc3ccc(=O)n(-c4cccc(C(F)(F)F)c4)c3c2c1", "121 to 122 °C"),
    ("NC(=O)/C=C/c1ccc2ncc3oc(=O)n(-c4cccc(C(F)(F)F)c4)c3c2c1", "291 to 292 °C"),
    ("C=CCNc1ccc(-c2ccc3ncc4ccc(=O)n(-c5cccc(C(F)(F)F)c5)c4c3c2)cn1", "142 to 146 °C"),
    ("O=c1ccc2cnc3ccc(Nc4ccc(F)nc4)cc3c2n1-c1cccc(C(F)(F)F)c1", "232 to 233 °C"),
    ("Cc1ccc(Nc2ccc3ncc4ccc(=O)n(-c5cccc(C(F)(F)F)c5)c4c3c2)cn1", "234 to 236 °C"),
    ("NC(=O)/C=C/c1ccc2ncc3ccc(=O)n(-c4cccc(C(F)(F)F)c4)c3c2c1", "307 to 308 °C"),
    ("CC(=O)/C=C/c1cnc2ccc(-c3ccc(CC(C)C)cc3)cc2c1Nc1cccc(C(F)(F)F)c1", "187 to 191 °C"),
    ("CC(=O)/C=C/c1cnc2ccc(-c3cccc(Cl)c3)cc2c1Nc1cccc(C(F)(F)F)c1", "182 to 183 °C"),
    ("COc1cncc(-c2ccc3ncc4oc(=O)n(-c5cccc(C(F)(F)F)c5)c4c3c2)c1", "257 to 258 °C"),
    ("CC(=O)/C=C/c1cnc2ccc(-c3ccc(C)nc3)cc2c1Nc1cccc(C(F)(F)F)c1", "172 to 174 °C"),
    ("COc1ccc(Nc2ccc3ncc4ccc(=O)n(-c5cccc(C(F)(F)F)c5)c4c3c2)cc1", "138 to 140 °C"),
    ("O=c1ccc2cnc3ccc(Nc4ccc(F)cc4)cc3c2n1-c1cccc(C(F)(F)F)c1", "176 to 179 °C"),
    ("CCOC(=O)/C=C/c1ccc2ncc3ccc(=O)n(-c4cccc(C(F)(F)F)c4)c3c2c1", "210 to 212 °C"),
    ("COc1ncc(-c2ccc3ncc4ccc(=O)n(-c5cccc(C(F)(F)F)c5)c4c3c2)cn1", "262 to 264 °C"),
    ("Cc1ccc(Nc2ccc3ncc4ccc(=O)n(-c5cccc(C(F)(F)F)c5)c4c3c2)cc1C", "140 to 141 °C"),
    ("N#Cc1cncc(-c2ccc3ncc4oc(=O)n(-c5cccc(C(F)(F)F)c5)c4c3c2)c1", "262 to 263 °C"),
    ("CC(C)c1ccc(-c2ccc3ncc4oc(=O)n(-c5cccc(C(F)(F)F)c5)c4c3c2)cc1", "219 to 220 °C"),
]
